Target: ST3O (Sus scrofa, UniProt Q02745)
Sequence (Q02745 28-343 limits assumed): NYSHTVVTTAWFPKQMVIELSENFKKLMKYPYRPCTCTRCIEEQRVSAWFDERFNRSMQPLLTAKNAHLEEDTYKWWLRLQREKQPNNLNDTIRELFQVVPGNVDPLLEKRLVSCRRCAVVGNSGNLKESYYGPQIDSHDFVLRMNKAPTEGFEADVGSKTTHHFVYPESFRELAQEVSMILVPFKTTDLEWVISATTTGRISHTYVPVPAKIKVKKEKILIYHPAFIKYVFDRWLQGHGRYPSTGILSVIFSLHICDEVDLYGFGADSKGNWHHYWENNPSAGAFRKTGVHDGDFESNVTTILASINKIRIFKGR
Assay: Acceptor specificity of ST3O in COS-1 media
Conditions: acceptor 0.2 mM
property label: Relative rate (%) ST3O

| compound | result units | Relative rate (%) ST3O |
| --- | --- | --- |
| CC(=O)N[C@H]1C(O)O[C@H](CO)[C@@H](O[C@@H]2O[C@H](CO)[C@H](O)[C@H](O)[C@H]2O)[C@@H]1O (stereo partly shown) | % | 0 |
| CC(=O)N[C@H]1[C@H](O[C@H]2[C@@H](O)[C@@H](CO)O[C@@H](O[C@H]3[C@H](O)[C@@H](O)C(O)O[C@@H]3CO)[C@@H]2O)O[C@H](CO)[C@@H](O[C@@H]2O[C@H](CO)[C@H](O)[C@H](O)[C@H]2O)[C@@H]1O (stereo partly shown) | % | 0 |
| CC(=O)N[C@H]1[C@H](O[C@H]2[C@@H](O)[C@@H](CO)O[C@@H](O[C@H]3[C@H](O)[C@@H](O)C(O)O[C@@H]3CO)[C@@H]2O)O[C@H](CO)[C@@H](O[C@@H]2O[C@@H](C)[C@@H](O)[C@@H](O)[C@@H]2O)[C@@H]1O[C@@H]1O[C@H](CO)[C@H](O)[C@H](O)[C@H]1O (stereo partly shown) | % | 0 |

(I) CC(=O)N[C@H]1C(O)O[C@H](CO)[C@H](O)[C@@H]1O[C@@H]1O[C@H](CO)[C@H](O)[C@H](O)[C@H]1O (stereo partly shown)
(II) CC(=O)N[C@H]1C(O)O[C@H](CO)[C@@H](O)[C@@H]1O[C@@H]1O[C@H](CO)[C@H](O)[C@H](O)[C@H]1O (stereo partly shown)
Which of the two items, I and II , has the greater recorded Relative rate (%) ST3O? // caller expects the label of the chosen entry
I
